B1: HDV Ribozyme (parent)
chain: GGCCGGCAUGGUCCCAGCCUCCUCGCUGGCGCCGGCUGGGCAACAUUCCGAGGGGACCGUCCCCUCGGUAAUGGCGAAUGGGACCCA

- Variants of: B1
- Assay explanation: self-cleavage, relative activity (ratio to wild type); higher = more cleavage; co-transcriptional
Value kind: self-cleavage
Response field accepts a number only; no unit should be typed.

Example entries and their recorded answers appear below.
C7A U46A
0.287
C15U U79A
1.11
C30U A87U
0.636
G6U A70G
0.571
G34C G53C
0.0898
G54U C85A
0.964

Query block: Record request: self-cleavage value, item G25A C30U
Result block: 0.143

Query block: Record request: self-cleavage value, item C22U A71C
Result block: 0.623
